System: H3N8 A/Miami/2/63
Settings: A/Miami/2/63, 48 h, 500 μM
Bridge positions count the residues as written; N and C are the ends. Square brackets hold non-standard residues; d marks the D form. Peptide text beside a SMILES is read from it.
Would you kindly list % inhibition H3N8 for each of these compounds?
Numbers only, in %.

Below, 5 compounds whose answers are already recorded.
CC[C@@H](C)[C@H]1NC(=O)[C@@H](Cc2ccccc2)NC(=O)[C@@H](CCCNC(=N)N)NC(=O)[C@@H](CO)NC(=O)[C@@H](C)NC(=O)[C@@H]([C@H](C)O)NC(=O)[C@H](NC(=O)[C@@H](CCCCN)NC(=O)[C@@H](CCCCN)NC(=O)[C@@H](CCCNC(=N)N)NC(=O)[C@H](N)CCCNC(=N)N)CSSC[C@H](C(=O)O)NC(=O)[C@@H](CC(N)=O)NC1=O [PSP II A1, H-rrkkctasrfinc-OH] (H-[dR][dR][dK][dK][dC][dT][dA][dS][dR][dF][dI][dN][dC]-OH; disulfide 5-13)	25.9
CC(C)[C@H]1NC(=O)[C@@H](Cc2ccccc2)NC(=O)[C@@H](CCCNC(=N)N)NC(=O)[C@@H](CO)NC(=O)[C@@H](CCCCN)NC(=O)[C@@H]([C@H](C)O)NC(=O)[C@H](N)CSSC[C@H](C(=O)O)NC(=O)[C@@H](CC(N)=O)NC1=O [PSP 18, H-ctksrfvnc-OH] (H-[dC][dT][dK][dS][dR][dF][dV][dN][dC]-OH; disulfide 1-9)	78.4
CC[C@@H](C)[C@H]1NC(=O)[C@@H](Cc2ccccc2)NC(=O)[C@@H](CCCNC(=N)N)NC(=O)[C@@H](CO)NC(=O)[C@@H](Cc2c[nH]c3ccccc23)NC(=O)[C@@H]([C@H](C)O)NC(=O)[C@H](NC(=O)[C@H](CCCCN)NC(=O)[C@H](CCCCN)NC(=O)[C@H](CCCNC(=N)N)NC(=O)[C@@H](N)CCCNC(=N)N)CSSC[C@H](C(=O)O)NC(=O)[C@@H](CC(N)=O)NC1=O [PSP III B16, H-RRKKctwsrfinc-OH] (H-RRKK[dC][dT][dW][dS][dR][dF][dI][dN][dC]-OH; disulfide 5-13)	100
C[C@H](O)[C@H]1NC(=O)[C@H](N)CSSC[C@H](C(=O)O)NC(=O)[C@@H](CC(N)=O)NC(=O)[C@@H](CCCCN)NC(=O)[C@@H](Cc2ccccc2)NC(=O)[C@@H](CCCNC(=N)N)NC(=O)[C@@H](CO)NC(=O)[C@@H](CCCCN)NC1=O [PSP 9, H-ctksrfknc-OH] (H-[dC][dT][dK][dS][dR][dF][dK][dN][dC]-OH; disulfide 1-9)	62.9
CC[C@@H](C)[C@H]1NC(=O)[C@@H](Cc2ccccc2)NC(=O)[C@@H](CCCNC(=N)N)NC(=O)[C@@H](CO)NC(=O)[C@@H](Cc2c[nH]cn2)NC(=O)[C@@H]([C@H](C)O)NC(=O)[C@H](NC(=O)[C@@H](CCCCN)NC(=O)[C@@H](CCCCN)NC(=O)[C@@H](CCCNC(=N)N)NC(=O)[C@H](N)CCCNC(=N)N)CSSC[C@H](C(=O)O)NC(=O)[C@@H](CC(N)=O)NC1=O [PSP II A7, H-rrkkcthsrfinc-OH] (H-[dR][dR][dK][dK][dC][dT][dH][dS][dR][dF][dI][dN][dC]-OH; disulfide 5-13)	81.5

Respectfully, I request % inhibition H3N8 for each entry included below.
1. C[C@H](O)[C@H]1NC(=O)[C@H](N)CSSC[C@H](C(=O)O)NC(=O)[C@@H](CC(N)=O)NC(=O)[C@@H](Cc2c[nH]cn2)NC(=O)[C@@H](Cc2ccccc2)NC(=O)[C@@H](CCCNC(=N)N)NC(=O)[C@@H](CO)NC(=O)[C@@H](CCCCN)NC1=O [PSP 7, H-ctksrfhnc-OH] (H-[dC][dT][dK][dS][dR][dF][dH][dN][dC]-OH; disulfide 1-9)
2. CC[C@@H](C)[C@H]1NC(=O)[C@@H](Cc2ccccc2)NC(=O)[C@@H](CCCNC(=N)N)NC(=O)[C@@H](CO)NC(=O)[C@@H](CCSC)NC(=O)[C@@H]([C@H](C)O)NC(=O)[C@H](NC(=O)[C@@H](CCCCN)NC(=O)[C@@H](CCCCN)NC(=O)[C@@H](CCCNC(=N)N)NC(=O)[C@H](N)CCCNC(=N)N)CSSC[C@H](C(=O)O)NC(=O)[C@@H](CC(N)=O)NC1=O [PSP II A11, H-rrkkctmsrfinc-OH] (H-[dR][dR][dK][dK][dC][dT][dM][dS][dR][dF][dI][dN][dC]-OH; disulfide 5-13)
3. CC[C@@H](C)[C@H]1NC(=O)[C@@H](Cc2ccccc2)NC(=O)[C@@H](CCCNC(=N)N)NC(=O)[C@@H](CO)NC(=O)[C@@H](CC(N)=O)NC(=O)[C@@H]([C@H](C)O)NC(=O)[C@H](NC(=O)[C@@H](CCCCN)NC(=O)[C@@H](CCCCN)NC(=O)[C@@H](CCCNC(=N)N)NC(=O)[C@H](N)CCCNC(=N)N)CSSC[C@H](C(=O)O)NC(=O)[C@@H](CC(N)=O)NC1=O [PSP II A12, H-rrkkctnsrfinc-OH] (H-[dR][dR][dK][dK][dC][dT][dN][dS][dR][dF][dI][dN][dC]-OH; disulfide 5-13)
4. C[C@H](O)[C@H]1NC(=O)[C@H](N)CSSC[C@H](C(=O)O)NC(=O)[C@@H](CC(N)=O)NC(=O)[C@@H](CCCNC(=N)N)NC(=O)[C@@H](Cc2ccccc2)NC(=O)[C@@H](CCCNC(=N)N)NC(=O)[C@@H](CO)NC(=O)[C@@H](CCCCN)NC1=O [PSP 15, H-ctksrfrnc-OH] (H-[dC][dT][dK][dS][dR][dF][dR][dN][dC]-OH; disulfide 1-9)
5. CC[C@@H](C)[C@H]1NC(=O)[C@@H](Cc2ccccc2)NC(=O)[C@@H](CCCNC(=N)N)NC(=O)[C@@H](CO)NC(=O)[C@@H](CCC(N)=O)NC(=O)[C@@H]([C@H](C)O)NC(=O)[C@H](NC(=O)[C@@H](CCCCN)NC(=O)[C@@H](CCCCN)NC(=O)[C@@H](CCCNC(=N)N)NC(=O)[C@H](N)CCCNC(=N)N)CSSC[C@H](C(=O)O)NC(=O)[C@@H](CC(N)=O)NC1=O [PSP II A14, H-rrkkctqsrfinc-OH] (H-[dR][dR][dK][dK][dC][dT][dQ][dS][dR][dF][dI][dN][dC]-OH; disulfide 5-13)

[A]
1. 76.3
2. 76.5
3. 70.6
4. 61.9
5. 85
